# Test target: Fuc(a1-2)Gal(b1-4)GlcNAc(b1-3)Gal(b1-4)GlcNAc
# Assay details: glycan array binding signal (z-score within array); higher = stronger binding
# Applied conditions: glycan notation: IUPAC condensed, linker removed
About 410 targets per protein were measured; listed, in parts, are those with the strongest signals and a random draw of the rest.
Measured parameter: glycan array binding signal (z-score)

Example entries begin here.
INSERT INTO assay_data (binder, measured_parameter, test_value) VALUES
  ('Mermaid2 (Stilbonema majum) (protein) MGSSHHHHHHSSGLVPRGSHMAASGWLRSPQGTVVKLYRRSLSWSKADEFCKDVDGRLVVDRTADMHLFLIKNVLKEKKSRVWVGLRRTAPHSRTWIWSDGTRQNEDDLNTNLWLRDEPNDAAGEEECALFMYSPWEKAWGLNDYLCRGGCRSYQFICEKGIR', 'glycan array binding signal (z-score)', -0.575),
  ('TAL6-4LysM (Trichoderma atroviride) (protein) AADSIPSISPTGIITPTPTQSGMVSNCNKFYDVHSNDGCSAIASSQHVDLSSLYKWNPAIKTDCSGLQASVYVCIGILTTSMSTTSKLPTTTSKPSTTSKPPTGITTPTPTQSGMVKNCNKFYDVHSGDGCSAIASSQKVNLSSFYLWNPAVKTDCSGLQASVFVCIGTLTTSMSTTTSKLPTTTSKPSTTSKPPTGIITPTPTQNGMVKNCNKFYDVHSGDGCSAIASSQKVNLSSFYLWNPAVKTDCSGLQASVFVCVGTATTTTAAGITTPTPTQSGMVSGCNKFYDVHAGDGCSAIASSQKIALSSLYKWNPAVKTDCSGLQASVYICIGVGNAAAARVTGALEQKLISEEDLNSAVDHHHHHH', 'glycan array binding signal (z-score)', 0.858),
  ('MGL (Homo sapiens), Q8IUN9 (protein) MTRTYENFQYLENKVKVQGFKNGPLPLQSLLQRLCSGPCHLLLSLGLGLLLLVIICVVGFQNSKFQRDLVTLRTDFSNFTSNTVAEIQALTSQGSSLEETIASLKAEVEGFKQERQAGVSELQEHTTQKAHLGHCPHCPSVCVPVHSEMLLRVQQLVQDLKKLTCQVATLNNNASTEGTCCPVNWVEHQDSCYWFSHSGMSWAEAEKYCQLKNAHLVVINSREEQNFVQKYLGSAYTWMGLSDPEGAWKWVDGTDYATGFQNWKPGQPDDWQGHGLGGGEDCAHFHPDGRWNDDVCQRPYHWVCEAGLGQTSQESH', 'glycan array binding signal (z-score)', -0.247),
  ('BDCA-2 (Homo sapiens), Q8WTT0 (protein) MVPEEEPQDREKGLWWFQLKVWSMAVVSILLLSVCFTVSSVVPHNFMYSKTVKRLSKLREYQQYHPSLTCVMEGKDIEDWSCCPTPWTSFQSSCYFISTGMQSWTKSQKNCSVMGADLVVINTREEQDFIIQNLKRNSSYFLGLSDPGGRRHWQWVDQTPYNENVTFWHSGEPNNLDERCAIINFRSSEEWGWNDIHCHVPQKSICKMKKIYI', 'glycan array binding signal (z-score)', -0.038);

Which glycan array binding signal (z-score) reading was recorded for the binder Gal 7 (Homo sapiens) (protein) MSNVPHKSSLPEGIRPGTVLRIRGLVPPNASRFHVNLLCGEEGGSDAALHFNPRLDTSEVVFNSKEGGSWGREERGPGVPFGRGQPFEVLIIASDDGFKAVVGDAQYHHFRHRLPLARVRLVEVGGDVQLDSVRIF ? 5.81

Where do these numbers come from? They come from the supplement of paper PMC8728848.
